TARGET_UNDER_TEST: TtgR (TtgR^WT) (Pseudomonas putida)
Construct: homodimer
TEST_PROTOCOL: isothermal titration calorimetry, one set of sites
MEASURED_PROPERTY: Kd (µM)
Numbers only, in µM.

| COMPOUND_STRUCTURE_STRING | DATA_VALUE |
| --- | --- |
| O=C(CCc1ccc(O)cc1)c1c(O)cc(O)cc1O | 1.5 |

In plain terms, O=C(N[C@H](CO)[C@H](O)c1ccc([N+](=O)[O-])cc1)C(Cl)Cl has a documented Kd of 5.6

* * *

TARGET_UNDER_TEST: TtgR (TtgR^WT) (Pseudomonas putida, UniProt Q9AIU0, N110A)
TEST_PROTOCOL: biochemical
Please provide measured Kd for the entries that follow.

| COMPOUND_STRUCTURE_STRING | DATA_VALUE |
| --- | --- |
| O=C(N[C@H](CO)[C@H](O)c1ccc([N+](=O)[O-])cc1)C(Cl)Cl | 15.6 µM |

Sample O=C(CCc1ccc(O)cc1)c1c(O)cc(O)cc1O ; Kd observed: 1 µM

* * *

Kindly supply the reported Kd values for the records listed here.
TARGET_UNDER_TEST: TtgR (TtgR^WT) (Pseudomonas putida, UniProt Q9AIU0, E78A)
TEST_PROTOCOL: biochemical
Numbers only, in µM.

| COMPOUND_STRUCTURE_STRING | TARGET_UNDER_TEST | Kd / µM |
| --- | --- | --- |
| O=C(CCc1ccc(O)cc1)c1c(O)cc(O)cc1O | TtgR (TtgR^WT) (Pseudomonas putida, UniProt Q9AIU0, E78A) | 0.7 |

Please fill in: Kd reported for O=C(N[C@H](CO)[C@H](O)c1ccc([N+](=O)[O-])cc1)C(Cl)Cl = 18.5

* * *

Would you kindly list pKd for each of these compounds?
TARGET_UNDER_TEST: TtgR (TtgR^WT) (Pseudomonas putida, UniProt Q9AIU0, H114A)
TEST_PROTOCOL: biochemical
One number for each entry, as −log10 of the molar value.

| COMPOUND | pKd |
| --- | --- |
| O=C(CCc1ccc(O)cc1)c1c(O)cc(O)cc1O [phloretin] | 5.89 |

Sure, the documented pKd for O=C(N[C@H](CO)[C@H](O)c1ccc([N+](=O)[O-])cc1)C(Cl)Cl [chloramphenicol] is 5.07
